meta.source: paper PMC8633249

Molecular target: AGL55, 55-mer A-domain peptide of PAM_(NS88.2) (Streptococcus pyogenes (GAS isolate …))
Assay: ITC; 37°C
Readout Label: pKd
Convention used: pKd is expressed as -log10 of the molar concentration.

Input line: May I ask what pKd has been recorded for K2hPg, kringle-2 domain of human plasminogen (domain or fragment) YVEFSEECMHGSGENYDGKISKTMSGLECQAWDSQSPHAHGYIPSKFPNKNLKKNYCRNPDRDLRPWCFTTDPNKRWEYCDIPRCAA ?
Output line: 6.63
